Biological target: TNKS1 (Homo sapiens)
Experiment: TNKS1/PARP Biochemical Assay (TNKS1)
pIC50: −log10 of the molar value.
propertyLabel: pIC50

Please review the entries below; each comes with its answer.
Cc1cccc2c(=O)[nH]c(-c3ccc(C(=O)N(C)C4CCN(C)CC4)cc3)cc12 = > 7.70
CC(C)(C)OC(=O)N1CCN(Cc2ccc(-c3cc4c(C5CC5)cccc4c(=O)[nH]3)cc2)CC1 = > 6.30
Cc1cccc2c(=O)[nH]c(-c3ccc(CN4CC(O)C4)cc3)cc12 = > 7.70
Cc1ccc(F)c2c(=O)[nH]c(-c3ccc(C(=O)N4CCN(C)CC4)nc3)cc12 = > 6.30
CC(=O)N1CCN(c2ccc(-c3cc4c(C)cccc4c(=O)[nH]3)cn2)CC1 = > 7.70
Cc1cc(F)cc2c(=O)[nH]c(-c3ccc(CN4CCN(C(=O)OC(C)(C)C)CC4)cc3)cc12 = > 6.30

Data request: Hello, I am looking for reported pIC50 with TNKS1 (Homo sapiens) for Cc1cccc2c(=O)[nH]c(-c3ccc(C(C)N4CCNCC4)cc3)cc12 (centres unmarked) . Could you help?
Data returned: > 7.30

---

Biological target: TNKS1 (Homo sapiens, UniProt O95271)
Experiment: TNKS1/PARP Biochemical Assay (TNKS1)
pIC50: −log10 of the molar value.
pIC50 reference

Example entries begin here.
CN1CCN(c2ccc(-c3cc4ccccc4c(=O)[nH]3)cn2)CC1 [REF-3, reference compound] = 7.62
Cc1cccc2c(=O)[nH]c(-c3ccc(CN4CCN(C(=O)C5CC5)CC4)nc3)cc12 = > 7.70
Cc1cc(F)cc2c(=O)[nH]c(-c3ccc(C(=O)N(C)CC4CCN(C)CC4)cc3)cc12 = > 7.70
Cc1cccc2c(=O)[nH]c(-c3ccc(S(=O)(=O)N(C)C)cc3)cc12 = > 7.30
O=c1[nH]c(-c2ccc(CN3CCNCC3)cc2)cc2c(C3CC3)cccc12 = > 6.30
CN(C)CCOc1ccc(-c2cc3ccccc3c(=O)[nH]2)cc1 [REF-5, reference compound] = 7.77
CN1CCN(C(=O)c2ccc(-c3cc4c(O)cccc4c(=O)[nH]3)cn2)CC1 [REF-7, reference compound] = 7.38

Data request: # value lookup — system TNKS1 (Homo sapiens, UniProt O95271), readout pIC50, item Cc1cccc2c(=O)[nH]c(-c3cnc(N4CCN(C)CC4)c(F)c3)cc12
Data returned: > 7.30

---

Target: TNKS1 (Homo sapiens, UniProt O95271)
Experiment: TNKS1/PARP Biochemical Assay (TNKS1)
propertyLabel: IC50

Some compounds with known IC50 results, for comparison:
CN1CCC(CNC(=O)c2ccc(-c3cc4c(Cl)cccc4c(=O)[nH]3)cc2)CC1 [IQ-091] = < 500 nM
Cc1cc(F)cc2c(=O)[nH]c(-c3ccc(C(=O)N(C)C4CCNCC4)cc3)cc12 [IQ-213] = < 20 nM
Cc1cccc2c(=O)[nH]c(-c3ccc(CC(=O)N(C)C4CCN(C)CC4)cc3)cc12 [IQ-176] = < 20 nM
CN1CCN(Cc2ccc(-c3cc4ccc(F)cc4c(=O)[nH]3)cc2)CC1 [REF-2, reference compound] = 48 nM
Cc1cccc2c(=O)[nH]c(-c3cnc(N4CCN(C)CC4)nc3)cc12 [IQ-025] = 17 nM

Data request: Lab note: need IC50 for Cc1ccc(F)c2c(=O)[nH]c(-c3ccc(C(=O)N4CCN(CCO)CC4)cc3)cc12 [IQ-193] on TNKS1 (Homo sapiens, UniProt O95271), anyone have it?
Data returned: < 20 nM

Data request: Any idea what IC50 came out for Cc1cccc2c(=O)[nH]c(-c3ccc(C(=O)N(C)C4CCN(C(C)C)CC4)cc3)cc12 [IQ-206] on TNKS1 (Homo sapiens, UniProt O95271)?
Data returned: < 50 nM

Data request: Requested read-out IC50, target or system TNKS1 (Homo sapiens, UniProt O95271), entry Cc1cc(F)cc2c(=O)[nH]c(-c3ccc(CN4CCNCC4)cc3)cc12 [IQ-078]
Data returned: < 50 nM

Origin of measurements: patent US9193689B2
